test system: eIF2α; assay: eIF2α phosphorylation measured by Western blot; format: cell-based; details: Western blot; unit or reference not given
eIF2α-P (phosphorylation of eIF2α measured by Western blot) values, listed per item

response.value for CC(C)(C)c1ccc(O)c(C2(Cc3ccccc3)C(=O)Nc3ccccc32)c1 (centres unmarked) (field: eIF2α-P (phosphorylation of eIF2α measured by Western blot)) = 1.01

The reported eIF2α-P (phosphorylation of eIF2α measured by Western blot) of the compound `CCc1cccc2c1NC(=O)C2(c1ccccc1)c1ccccc1` was 2.19

According to the records, this compound CC(C)(C)c1ccc(O)c(C2(c3ccccc3)C(=O)Nc3c(C(=O)O)ccc(Cl)c32)c1 (centres unmarked) displays eIF2α-P (phosphorylation of eIF2α measured by Western blot) of 7.47

Recorded eIF2α-P (phosphorylation of eIF2α measured by Western blot) (compound COC(=O)COc1ccc(C(C)(C)C)cc1C1(c2ccccc2)C(=O)Nc2ccccc21 (centres unmarked) ): 3.94

So for CC(C)(C)c1ccc(OC(=O)CCCC(=O)O)c(C2(c3ccccc3)C(=O)Nc3ccccc32)c1 (centres unmarked) , the logged eIF2α-P (phosphorylation of eIF2α measured by Western blot) turned out to be 1.72

Each recorded value in this set is attributed to patent US8044089B2.
